Field: Second Scan Tm. Provide a value for each of the molecules that follow.
method_notes: Thermal stability of cysteine-NEM conjugates by DSC
Format: physicochemical
condition_parameters: second identical scan
Answers are plain numbers, in °C.

Take a look at these entries with their results.
Exercise: Quick check: Second Scan Tm of S20C: cysteine variant of P54AR4-83v2 (SEQ ID NOS: 195 and 233); NEM and VC-MMAF conjugates (conjugate, NEM or vcMMAF conjugate; EGFR binding FN3 domain, NEM and VC-MMAF conjugates) MLPAPKNLVVSEVTEDSARLCWDDPWAFYESFLIQYQESEKVGEAIVLTVPGSERSYDLTGLKPGTEYTVSIYGVHNVYKDTNMRGLPLSAIFTT ?
Solution: 70

Exercise: Quick check: Second Scan Tm of S10C: cysteine variant of P54AR4-83v2 (SEQ ID NOS: 190 and 228); NEM and VC-MMAF conjugates (conjugate, NEM or vcMMAF conjugate; EGFR binding FN3 domain, NEM and VC-MMAF conjugates) MLPAPKNLVVCEVTEDSARLSWDDPWAFYESFLIQYQESEKVGEAIVLTVPGSERSYDLTGLKPGTEYTVSIYGVHNVYKDTNMRGLPLSAIFTT ?
Solution: 68

Further cases:
Exercise: Quick check: Second Scan Tm of V49C (conjugate, left off: small tags and cut ends) LPAPKNLVVSEVTEDSARLSWDDPWAFYESFLIQYQESEKVGEAIVLTCPGSERSYDLTGLKPGTEYTVSIYGVHNVYKDTNMRGLPLSAIFTT ?
Solution: 55

Sourced from patent US11702475B2
